- experimental-details: Immunosuppressive activity against […] mouse CD4-positive T cell cells assessed as inhibition of CD3/CD28-induced cell proliferation after 72 hrs by FACS analysis
Binary label based on IC50 with cut-off 2 µg/mL: below gives t, not below gives f.

cpd-smiles	cat
CC[C@@H]1/C=C(\C)C[C@H](C)C[C@H](OC)[C@H]2O[C@@](O)(CC(=O)N3CCCC[C@H]3C(=O)O[C@H](/C(C)=C/[C@@H]3CC[C@@H](O)[C@H](OC)C3)[C@H](C)[C@@H](O)CC1=O)[C@H](C)C[C@@H]2OC	t
CO[C@H]1C[C@@H](C)C/C(C)=C/[C@@H](C)C(=O)C[C@H](O)[C@@H](C)[C@@H](/C(C)=C/[C@@H]2CC[C@@H](O)[C@H](O)C2)OC(=O)[C@@H]2CCCCN2C(=O)C[C@]2(O)O[C@H]1[C@@H](OC)C[C@H]2C	f
C=CC[C@@H]1/C=C(\C)C[C@H](C)C[C@H](OC)[C@H]2O[C@@](O)(CC(=O)N3CCC[C@H]3C(=O)O[C@H](/C(C)=C/[C@@H]3CC[C@@H](O)[C@H](O)C3)[C@H](C)[C@@H](O)CC1=O)[C@H](C)C[C@@H]2OC	t
CCC[C@@H]1/C=C(\C)C[C@H](C)C[C@H](OC)[C@H]2O[C@@](O)(C(=O)C(=O)N3CCCC[C@H]3C(=O)O[C@H](/C(C)=C/[C@@H]3CC[C@@H](O)[C@H](O)C3)[C@H](C)[C@@H](O)CC1=O)[C@H](C)C[C@@H]2OC	t

* * *

- Test system: Candida albicans
- experimental-details: Antifungal activity against Candida albicans SC5314 after 24 hrs by XTT assay
- Type: functional, organism-based
- condition-parameters: SC5314, 24 h
Would you mind classing the entries by IC50? Ranges: low = under 0.7 µg/mL, moderate = from 0.7 µg/mL up to 6 µg/mL, high = 6 µg/mL and over

cpd-smiles	cat
CC[C@@H]1/C=C(\C)C[C@H](C)C[C@H](OC)[C@H]2O[C@@](O)(C(=O)C(=O)N3CCCC[C@H]3C(=O)O[C@H](/C(C)=C/[C@@H]3CC[C@@H](O)[C@H](O)C3)[C@H](C)[C@@H](O)CC1=O)[C@H](C)C[C@@H]2OC	low
CCC[C@@H]1/C=C(\C)C[C@H](C)C[C@H](OC)[C@H]2O[C@@](O)(CC(=O)N3CCCC[C@H]3C(=O)O[C@H](/C(C)=C/[C@@H]3CC[C@@H](O)[C@H](O)C3)[C@H](C)[C@@H](O)CC1=O)[C@H](C)C[C@@H]2OC	moderate
CO[C@H]1C[C@@H](C)C/C(C)=C/[C@@H](C)C(=O)C[C@H](O)[C@@H](C)[C@@H](/C(C)=C/[C@@H]2CC[C@@H](O)[C@H](O)C2)OC(=O)[C@@H]2CCCCN2C(=O)C[C@]2(O)O[C@H]1[C@@H](OC)C[C@H]2C	high
CC[C@@H]1/C=C(\C)C[C@H](C)C[C@H](OC)[C@H]2O[C@@](O)(CC(=O)N3CCCC[C@H]3C(=O)O[C@H](/C(C)=C/[C@@H]3CC[C@@H](O)[C@H](O)C3)[C@H](C)[C@@H](O)CC1=O)[C@H](C)C[C@@H]2OC	moderate
CCC[C@@H]1/C=C(\C)C[C@H](C)C[C@H](OC)[C@H]2O[C@@](O)(C(=O)C(=O)N3CCCC[C@H]3C(=O)O[C@H](/C(C)=C/[C@@H]3CC[C@@H](O)[C@H](O)C3)[C@H](C)[C@@H](O)CC1=O)[C@H](C)C[C@@H]2OC	low
CCC[C@@H]1/C=C(\C)C[C@H](C)C[C@H](OC)[C@H]2O[C@@](O)(CC(=O)N3CCCC[C@H]3C(=O)O[C@H](/C(C)=C/[C@@H]3CC[C@@H](O)[C@H](OC)C3)[C@H](C)[C@@H](O)CC1=O)[C@H](C)C[C@@H]2OC	moderate
CC[C@@H]1/C=C(\C)C[C@H](C)C[C@H](OC)[C@H]2O[C@@](O)(CC(=O)N3CCCC[C@H]3C(=O)O[C@H](/C(C)=C/[C@@H]3CC[C@@H](O)[C@H](OC)C3)[C@H](C)[C@@H](O)CC1=O)[C@H](C)C[C@@H]2OC	low
C=CC[C@@H]1/C=C(\C)C[C@H](C)C[C@H](OC)[C@H]2O[C@@](O)(CC(=O)N3CCC[C@H]3C(=O)O[C@H](/C(C)=C/[C@@H]3CC[C@@H](O)[C@H](O)C3)[C@H](C)[C@@H](O)CC1=O)[C@H](C)C[C@@H]2OC	high
